Reference for the values: patent US20250250357A1

Below, each entry is listed with its recorded competition rate.
- Measured On: T1, human MSLN-FL-his protein (human, UniProt Q13421 296-580)
- T1 construct: made in HEK293E cells, purified on nickel column; also called hMSLN-FL-his; human MSLN full-length protein; not shown: His tag
- Assay Protocol: competitive ELISA; row F8-13.8; further: test concentration or dose not given here
Quick note: give the figure in %, leave out the unit.

>>> value_reported("S009-F8-27.1 (antibody, human IgG1, kappa, V domains shown, human-murine chimeric antibody, human IgG1/kappa constant regions) VH: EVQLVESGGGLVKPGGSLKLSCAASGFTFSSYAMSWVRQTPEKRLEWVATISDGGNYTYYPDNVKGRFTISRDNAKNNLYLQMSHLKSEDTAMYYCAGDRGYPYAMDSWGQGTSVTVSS VL: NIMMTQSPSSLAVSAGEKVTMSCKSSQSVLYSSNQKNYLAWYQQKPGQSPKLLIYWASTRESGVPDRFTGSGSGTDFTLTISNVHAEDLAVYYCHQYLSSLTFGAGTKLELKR")
74.6

Moving on to the next binder.
For S009-F8-18.9 (antibody, human IgG1, kappa, V domains shown, human-murine chimeric antibody, human IgG1/kappa constant regions) VH: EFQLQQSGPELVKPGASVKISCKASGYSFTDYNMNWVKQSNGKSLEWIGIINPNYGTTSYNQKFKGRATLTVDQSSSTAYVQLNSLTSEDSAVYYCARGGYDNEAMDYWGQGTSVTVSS VL: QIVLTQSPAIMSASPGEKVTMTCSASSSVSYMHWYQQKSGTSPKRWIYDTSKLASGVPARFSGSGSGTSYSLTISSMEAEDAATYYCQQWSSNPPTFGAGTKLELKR , what is its reported competition rate?
77.5
